These data points were gathered from PubChem BioAssay (EPA / NIEHS).

Read-out: E-selectin (Homo sapiens) (UniProt P16581)
Sequence (P16581 whole entry, looked up): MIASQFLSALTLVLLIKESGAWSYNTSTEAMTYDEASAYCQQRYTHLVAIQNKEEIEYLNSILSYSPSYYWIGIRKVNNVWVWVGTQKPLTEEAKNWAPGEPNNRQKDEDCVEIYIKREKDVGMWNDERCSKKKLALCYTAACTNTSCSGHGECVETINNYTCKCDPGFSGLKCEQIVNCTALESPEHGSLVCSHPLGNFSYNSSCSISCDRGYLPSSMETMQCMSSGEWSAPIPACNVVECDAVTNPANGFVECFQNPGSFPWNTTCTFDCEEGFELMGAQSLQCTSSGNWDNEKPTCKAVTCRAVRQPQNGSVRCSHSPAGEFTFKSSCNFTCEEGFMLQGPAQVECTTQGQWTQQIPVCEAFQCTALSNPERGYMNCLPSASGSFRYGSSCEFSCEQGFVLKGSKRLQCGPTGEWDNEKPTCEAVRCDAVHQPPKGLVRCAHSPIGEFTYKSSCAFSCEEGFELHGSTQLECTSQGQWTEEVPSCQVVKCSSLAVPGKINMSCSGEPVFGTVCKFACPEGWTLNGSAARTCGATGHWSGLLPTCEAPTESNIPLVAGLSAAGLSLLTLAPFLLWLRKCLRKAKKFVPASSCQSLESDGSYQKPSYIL
Measurement protocol: BSK_LPS_Eselectin: BioMAP Diversity Plus: LPS Assay for Eselectin Biomarker Activity (AID 2283077)
Condition context: primary human HUVEC with PBMC; actives raise or lower the signal
Activity calls are given as the source filed them. How the source made its calls: active means hit-call score of the fitted dose curve at least 0.9, where 1 is the maximum; inactive means score below 0.9.
Tick one outcome: active, inactive

## Task Entry `Cc1nn(-c2cc(NS(C)(=O)=O)c(Cl)cc2Cl)c(=O)n1C(F)F` : call = ?
## Result inactive

## Task Entry `CNC(=O)Oc1cccc2c1OC(C)(C)O2` : call = ?
## Result active

## Task Entry CCOP(=S)(Oc1cnc(C(C)(C)C)nc1)OC(C)C (configuration not stated) : call = ?
## Result active

## Task Entry `CSC1=N[C@@](C)(c2ccccc2)C(=O)N1Nc1ccccc1` : call = ?
## Result active

## Task Entry `CNc1cnn(-c2cccc(C(F)(F)F)c2)c(=O)c1Cl` : call = ?
## Result inactive

## Task Entry `Nc1nc(N)nc(NC2CC2)n1` : call = ?
## Result inactive

## Task Entry `CNC(=O)ON=C(SC)C(=O)N(C)C` : call = ?
## Result inactive

## Task Entry `CCCCOC(=O)c1ccccc1C(=O)O` : call = ?
## Result inactive

## Task Entry CCOP(=O)(NC(C)C)Oc1ccc(SC)c(C)c1 (configuration not stated) : call = ?
## Result inactive

## Task Entry `C=C(C)[C@H]1Cc2c(ccc3c2O[C@@H]2COc4cc(OC)c(OC)cc4[C@@H]2C3=O)O1` : call = ?
## Result active

## Task Entry `CCC(=O)Nc1ccc(Cl)c(Cl)c1` : call = ?
## Result inactive

## Task Entry `C[N+]1(C)CCCCC1` : call = ?
## Result inactive

----------
Read-out: Cytochrome P450 3A4 (Homo sapiens) (UniProt P08684)
Sequence (P08684 whole entry, looked up): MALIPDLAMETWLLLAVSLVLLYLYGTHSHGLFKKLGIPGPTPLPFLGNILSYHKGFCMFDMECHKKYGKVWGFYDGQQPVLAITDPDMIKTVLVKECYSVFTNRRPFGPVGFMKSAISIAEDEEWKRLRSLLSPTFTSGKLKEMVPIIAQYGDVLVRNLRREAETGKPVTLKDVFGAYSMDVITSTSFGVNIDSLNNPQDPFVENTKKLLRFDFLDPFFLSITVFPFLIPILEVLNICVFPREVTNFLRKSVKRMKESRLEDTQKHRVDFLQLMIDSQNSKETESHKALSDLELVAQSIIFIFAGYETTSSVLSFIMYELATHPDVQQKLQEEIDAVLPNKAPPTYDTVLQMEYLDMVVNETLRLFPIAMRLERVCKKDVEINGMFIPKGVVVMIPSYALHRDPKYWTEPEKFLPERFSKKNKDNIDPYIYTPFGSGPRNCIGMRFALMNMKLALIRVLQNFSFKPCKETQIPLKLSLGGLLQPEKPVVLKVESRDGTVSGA
Measurement protocol: CLD_CYP3A4_48hr: CellzDirect (CLD) Gene Expression Assay for xenobiotic metabolism (CYP3A4) at 48 hours (AID 2283698)
Results filed as inconclusive are left out. Active and inactive are the calls of the source. How the source made its calls: active means hit-call score of the fitted dose curve at least 0.9, where 1 is the maximum; inconclusive means response in the unintended direction; inactive means score below 0.9.
Tick one outcome: true (1) = active, false (0) = inactive

## Task Entry `Nc1c(Cl)cc([N+](=O)[O-])cc1Cl` : call = ?
## Result false (0)

## Task Entry CCOP(=S)(Oc1cnc(C(C)(C)C)nc1)OC(C)C (stereo not drawn) : call = ?
## Result true (1)

## Task Entry CCc1cnc(C2=NC(C)(C(C)C)C(=O)N2)c(C(=O)O)c1 (stereo not drawn) : call = ?
## Result false (0)

----------
Measurement protocol: Tanguay_ZF_120hpf_ActivityScore_legacy: (Legacy) Oregon State University Tanguay Lab 120 Hour Post-fertilization zebrafish Assay Score for Activity (AID 2283742)
The source made the active and inactive calls. How the source made its calls: active means hit-call score of the fitted dose curve at least 0.9, where 1 is the maximum; inconclusive means response in the unintended direction; inactive means score below 0.9.
Tick one outcome: active, inactive

## Task Entry `CCCCOC(=O)[C@@H](C)Oc1ccc(Oc2ccc(C#N)cc2F)cc1` : call = ?
## Result inactive

## Task Entry C#CCC1=C(C)C(OC(=O)C2C(C=C(C)C)C2(C)C)CC1=O (configuration not stated) : call = ?
## Result inactive

## Task Entry `Nc1nc(N)nc(NC2CC2)n1` : call = ?
## Result inactive

## Task Entry `COc1cccc(C(=O)NN(C(=O)c2cc(C)cc(C)c2)C(C)(C)C)c1C` : call = ?
## Result inactive

## Task Entry `CCOP(=S)(OCC)Oc1ccc([N+](=O)[O-])cc1` : call = ?
## Result inactive

## Task Entry `C[Si](Cn1cncn1)(c1ccc(F)cc1)c1ccc(F)cc1` : call = ?
## Result active

## Task Entry `CCCCN(CC)c1c([N+](=O)[O-])cc(C(F)(F)F)cc1[N+](=O)[O-]` : call = ?
## Result inactive
